Recorded Net log cell kill, one value per entry.
test system: P388 leukemia (mouse); test: Net log value for P388 leukemia cell kill in mice was determined
measure.name: Net log cell kill

mol.smiles	test.value
Cl.NCCn1nc2c3c(c(NCCNCCO)ccc31)Sc1ccccc1-2	> 6.7
CCN(CC)CCn1nc2c3c(c(NCCCN)ccc31)Sc1ccccc1-2.Cl.O	> 6.6
CN(C)CCCn1nc2c3c(c(NCCN)ccc31)Sc1ccccc1-2.Cl.O	> 6.7
CN(C)CCn1nc2c3c(c(NCCN)ccc31)Sc1ccccc1-2.Cl.O	> 6.7
Br.CCN(CC)CCn1nc2c3c(c(NCCN)ccc31)Sc1ccccc1-2	> 6.6
CCN(CC)CCn1nc2c3c(c(NCCNCCO)ccc31)Sc1ccccc1-2.Cl.O	> 6.8
CCN(CC)CCn1nc2c3c(c(N)ccc31)Sc1ccc(O)cc1-2.Cl.O	> 6.7
Br.CCN(CC)CCn1nc2c3c(c(NCCNCCO)ccc31)Sc1c(O)ccc(O)c1-2	0.1
Cl.NCCn1nc2c3c(c(N)ccc31)Sc1ccccc1-2	3.1
Br.Nc1ccc2c3c(nn2CCNCCO)-c2cc(O)ccc2Sc13	4.2

Just for reference, ChEMBL document CHEMBL1124226 is where these values come from.
